- Tested on: DeltatarO mutant
- METHOD SUMMARY: S. aureus survival, RN4220 and DeltatarO strains – OD600, teichoic acid synthesis inhibitors, primary screen (AID 463173)
- DETAILS: S. aureus RN4220 wild type/DeltatarO growth, OD600, 18 h, screened at 18.75 µg/mL (by protocol)
The whole screen tested about 52,000 compounds, of which about 4,300 (8.3%) were called active. No stated cut-off is given here; in the data, active means survival mostly below about 52% (no sharp cut-off); inactive means mostly above about 56%. The sample holds actives, similar compounds and a random draw of the others, so the mix is not that of the screen.
Labels: T (active), F (inactive)

                                    molecule  group
 0  CC1=C(c2ccc(C)cc2)S(=O)(=O)NC1=NCCCN1CCN(c2ccc(F)cc2)CC1      F
 1  O=C(Cn1nc(Cc2cccnc2)c2ccccc2c1=O)Nc1cccc(C(F)(F)F)c1      F
 2  Cc1ccc(NC(=O)CSc2nnc(-c3cc4occc4n3C)n2-c2ccccc2C)c(C)c1      F
 3  Cc1ccc(Nc2cc(C(=O)NCc3cccs3)c3ccccc3n2)c(C)c1      F
 4  CC(C)c1ccc(S(=O)(=O)c2nnn3c2nc(NC2CCCC2)c2sccc23)cc1      F
 5  CCC(C(=O)Nc1ccccc1)n1nc(-c2cc(C)ccc2C)ccc1=O (stereo not given)      T
 6       Cc1ccc(C)c(N2CCN(Cc3csc(C)c3)CC2)c1      F
 7  CCC(C(=O)Nc1cccc(C#N)c1)n1c(=O)c(-c2ccccc2NC(C)=O)nc2ccccc21 (stereo not given)      F
 8  CCCCSc1nc2sc3c(c2c(=O)n1-c1ccccc1C)CC(C)(C)OC3      F
 9  CCC(C(=O)Nc1cccc(C#N)c1)n1nc(-c2ccccc2)ccc1=O (stereo not given)      T
10  Cc1ccc(-c2nc(S(=O)(=O)c3ccc(F)cc3)c(N3CCN(c4ccccc4)CC3)o2)cc1      F
11  CCc1ccccc1NC(=O)C(C)n1nc(-c2ccc(C)c(C)c2)ccc1=O (stereo not given)      F
12  CC(C)(C)C1CCc2nc(NC(=O)COc3ccccc3[N+](=O)[O-])sc2C1 (stereo not given)      F
13  CCOc1ccc(CCNC(=O)c2cc3c(s2)-c2ccccc2OC3)cc1OCC      F
14  O=C(Cn1nc(-c2ccc(Cl)cc2)c2ccccc2c1=O)Nc1cccc(C(F)(F)F)c1      T
15  CCCSc1nc2sc3c(c2c(=O)n1-c1cccc(Br)c1)CC(C)(C)OC3      F
16  CCOc1ccc(NC(=O)CN2C(=O)COc3ccc(S(=O)(=O)NC4CCCC4)cc32)cc1      F
17  CCc1cccc(NC(=O)Cn2nc(-c3ccc(OC)cc3)ccc2=O)c1      F
18  Cc1ccc(-c2ccc(=O)n(CC(=O)Nc3cccc(C#N)c3)n2)cc1      F
19  CCCSc1nc2sc3c(c2c(=O)n1Cc1ccccc1)CC(C)(CC)OC3 (stereo not given)      T
20  CC1CCc2nc(NC(=O)Cc3ccc(Cl)cc3)sc2C1 (stereo not given)      T
21  CCCCN(C)CCNC(=O)CN1C(=O)CSc2ccc(S(=O)(=O)N3CCCCC3)cc21      F
22  COc1ccc(NC(=O)CCn2nc(-c3ccc(Cl)cc3)c3ccccc3c2=O)cc1      F
23  CCc1cccc(NC(=O)Cn2nc(CC)n3c(cc4cc(C)ccc43)c2=O)c1      F
24  COc1ccc(CNC(=O)CCC2N=C3c4ccccc4N=C(SCc4cccc(F)c4)N3C2=O)cc1 (stereo not given)      F
25  CC(C)COc1ccc(C(=O)Nc2nnc(S(=O)(=O)N(C)Cc3ccco3)s2)cc1      F
26  CCCCS(=O)(=O)c1oc(-c2ccc(F)cc2)nc1S(=O)(=O)c1ccc(C)cc1      T
27  O=C(COc1ccccc1)N(Cc1cccnc1)c1nc2c(F)cc(F)cc2s1      F
28  CCOC(=O)c1c(N)sc2c1CN(C(=O)OC)N(C(=O)OC)C2      F
29  CCc1cccc(NC(=O)Cn2nc(-c3cc(C)ccc3C)ccc2=O)c1      T
30  COc1cc(S(=O)(=O)N2CCCCC2C)c(OC)cc1Cl (stereo not given)      F
31  CC(=O)NC1(c2ccccc2)CCN(Cc2nnnn2C(C)(C)C)CC1      F
32  CCCC(=O)Nc1nc2c(s1)CC(C(C)(C)C)CC2 (stereo not given)      T
33  C=C(C)CSc1nc2sc3c(c2c(=O)n1-c1ccccc1)CC(C(C)C)OC3 (stereo not given)      F
34  CSc1oc(-c2cccs2)nc1S(=O)(=O)c1ccc(Br)cc1      F
35  Cc1cc(C)cc(OCC(=O)Nc2nc3c(s2)CC(C(C)(C)C)CC3)c1 (stereo not given)      F
36  Cc1ccc(S(=O)(=O)c2nc(-c3ccc(F)cc3)oc2N2CCN(c3ccccc3)CC2)cc1      F
37  COc1ccc(CC(=O)Nc2nc3c(s2)CC(C(C)(C)C)CC3)cc1 (stereo not given)      T
38  Cc1ccc(C)c(NC(=O)C(C)n2c(=O)cc(C(F)(F)F)c3c(C)nn(C)c32)c1 (stereo not given)      F
39          CCOC(=O)c1c(N)sc2c(OC)c(Br)ccc12      T
